# TARGET: UniProt J9SQF3
# ASSAY_SUMMARY: Monitoring the TRPM3 ion channel driven Ca2+ uptake (Fluo-4 AM assay)
# CONDITION_DETAILS: TRPM3 overexpressing flip-in HEK293 cells, channel stimulated with Pregnenolone sulfate (PS) 50 μM
pIC50: −log10 of the molar value.
MEASURED_ENDPOINT: pIC50

Look over these answered cases.
• Cc1ncc(COc2ccc3sc(C)c(C(=O)N[C@@H](C)C(N)=O)c3c2)s1 = > 6.00
• COc1ncccc1COc1ccc2sc(C)c(C(=O)NC3(CO)CC3)c2c1 = 4.70 to 6.00

Dear colleague, I am looking for the recorded pIC50 of the following compound: `Cc1sc2ccc(OCc3ccccc3F)cc2c1C(=O)NC1(CO)CCC1`
> 6.00

Item: `Cc1ncc(COc2ccc3sc(C)c(C(=O)NC4(CO)COC4)c3c2)s1`
> 6.00

What about `Cc1sc2ccc(OCc3ccccn3)cc2c1C(=O)N[C@H](C)C(N)=O` ?
> 6.00

* * *

# TARGET: mouse TRPM3α2 (mTRPM3) ion channel (Mus musculus)
# Sequence (J9SQF3 1-1709 isoform J9SQF3-12): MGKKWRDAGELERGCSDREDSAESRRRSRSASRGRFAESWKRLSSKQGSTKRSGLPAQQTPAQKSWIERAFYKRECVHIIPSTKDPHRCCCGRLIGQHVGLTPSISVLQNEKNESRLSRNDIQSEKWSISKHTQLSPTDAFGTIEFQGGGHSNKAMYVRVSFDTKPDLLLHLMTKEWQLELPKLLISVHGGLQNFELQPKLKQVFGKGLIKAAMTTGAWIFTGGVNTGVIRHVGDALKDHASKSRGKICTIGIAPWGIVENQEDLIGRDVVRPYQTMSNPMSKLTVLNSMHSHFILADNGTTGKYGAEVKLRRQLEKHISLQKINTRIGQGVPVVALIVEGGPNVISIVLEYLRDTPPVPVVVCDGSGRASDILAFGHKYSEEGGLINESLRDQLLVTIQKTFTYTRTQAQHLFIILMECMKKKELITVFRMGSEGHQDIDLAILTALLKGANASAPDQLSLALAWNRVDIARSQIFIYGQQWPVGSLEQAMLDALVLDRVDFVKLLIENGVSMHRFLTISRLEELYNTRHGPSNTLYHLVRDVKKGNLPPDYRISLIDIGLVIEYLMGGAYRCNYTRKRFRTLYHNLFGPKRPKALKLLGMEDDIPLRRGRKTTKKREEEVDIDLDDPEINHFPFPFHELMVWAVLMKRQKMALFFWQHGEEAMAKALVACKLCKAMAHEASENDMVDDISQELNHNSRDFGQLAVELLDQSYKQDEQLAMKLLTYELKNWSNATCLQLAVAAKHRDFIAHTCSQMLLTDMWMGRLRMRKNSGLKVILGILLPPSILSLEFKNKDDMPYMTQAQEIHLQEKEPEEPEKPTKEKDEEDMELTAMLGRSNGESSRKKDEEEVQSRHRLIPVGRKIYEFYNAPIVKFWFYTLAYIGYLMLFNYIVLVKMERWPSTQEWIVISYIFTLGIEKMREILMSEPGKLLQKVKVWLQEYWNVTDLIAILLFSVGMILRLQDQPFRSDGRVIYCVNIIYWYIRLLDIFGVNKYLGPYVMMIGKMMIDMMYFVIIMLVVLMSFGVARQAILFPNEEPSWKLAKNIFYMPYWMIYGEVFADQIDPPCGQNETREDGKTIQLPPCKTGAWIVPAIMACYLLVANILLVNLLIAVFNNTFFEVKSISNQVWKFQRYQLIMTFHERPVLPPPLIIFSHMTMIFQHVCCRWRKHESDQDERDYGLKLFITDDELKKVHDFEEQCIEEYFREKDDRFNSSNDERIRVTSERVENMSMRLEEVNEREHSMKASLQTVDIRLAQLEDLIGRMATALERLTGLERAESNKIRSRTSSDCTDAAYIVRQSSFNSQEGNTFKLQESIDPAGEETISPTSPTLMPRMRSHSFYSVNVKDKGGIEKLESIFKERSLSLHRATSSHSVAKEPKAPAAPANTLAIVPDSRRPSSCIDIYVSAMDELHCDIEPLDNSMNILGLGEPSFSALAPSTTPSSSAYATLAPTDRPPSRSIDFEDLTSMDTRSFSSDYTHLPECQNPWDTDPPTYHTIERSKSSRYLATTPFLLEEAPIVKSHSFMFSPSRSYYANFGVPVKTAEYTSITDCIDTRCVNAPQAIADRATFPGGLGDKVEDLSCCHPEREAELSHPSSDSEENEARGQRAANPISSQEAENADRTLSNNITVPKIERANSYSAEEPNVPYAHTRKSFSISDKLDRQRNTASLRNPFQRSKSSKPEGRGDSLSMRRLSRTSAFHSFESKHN
# ASSAY_SUMMARY: Monitoring the TRPM3 ion channel driven Ca2+ uptake (Fluo-4 AM assay)
# CONDITION_DETAILS: TRPM3 overexpressing flip-in HEK293 cells, channel stimulated with Pregnenolone sulfate (PS) 50 μM
MEASURED_ENDPOINT: IC50

• Cc1sc2ccc(OCc3cccnc3C(F)(F)F)cc2c1C(=O)NC(C)(C)C(N)=O [Cpd 065] = < 1000 nM
• Cc1sc2ccc(OCc3cccnc3C(F)(F)F)cc2c1C(=O)NC1CCNC1=O (stereo not drawn) [Cpd 094] = < 1000 nM

Read the next record carefully.
Fill in: IC50 of Cc1sc2ccc(OCc3ccccc3)cc2c1C(=O)NCC(C)(C)N1CCOCC1 [Cpd 098] is ___
1000 to 20000 nM
